B1: KCNA1 (parent)
chain: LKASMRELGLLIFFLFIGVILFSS

Variants of: B1
Assay: protein stability index of a GFP-peptide fusion (GPS, HEK-293T) (PSI 1-6); higher = more stable;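 further: lentivirally expressed fusions sorted by FACS into six bins by GFP to DsRed ratio, PSI derived from sequencing read proportions per bin multiplied by bin number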
Settings: c terminus: a fixed tail appended
Assignment: determine reported protein stability index for the given variants.
Respond with the number and no other words.

Any idea what its protein stability index is? The variant is LKASMRELGLLIFFLFIGVILFSD
2

What do you get for LKASMRELGLLIFFLPIGVILFSS ?
2.96

What do you get for LKASMWELGLLIFFLFIGVILFSS ?
2.35

What do you get for LKADMRELGLLIFFLFIGVILFSS ?
3.58

What do you get for LKASARELGLLIFFLFIGVILFSS ?
3.19

What do you get for LKASMRELGLLIFFLFIGVVLFSS ?
3.45

What do you get for LKASMRELGLLIFFLFIGVWLFSS ?
2.02

What do you get for LKASMREDGLLIFFLFIGVILFSS ?
2.32

What do you get for LKASMRELGLLIFFLFIGVIVFSS ?
2.12

What do you get for LNASMRELGLLIFFLFIGVILFSS ?
2.18

What do you get for LKASMRELGQLIFFLFIGVILFSS ?
2.94

What do you get for LKASMRELGLLIFFLFIGVMLFSS ?
3.52

What do you get for LKASLRELGLLIFFLFIGVILFSS ?
1.82

What do you get for LKASMRELGLLIFFLFIGVISFSS ?
3.5

What do you get for LKASMRELGLLIRFLFIGVILFSS ?
2.03

What do you get for LKASMRELGLLIFFPFIGVILFSS ?
2.29

What do you get for LKASMRELGLLIFFLFIGVCLFSS ?
2.75

What do you get for LKASMRELGLLIFFLFEGVILFSS ?
1.91

What do you get for LAASMRELGLLIFFLFIGVILFSS ?
3.41

What do you get for LKASMRELGLLIFFLFINVILFSS ?
3.02

What do you get for QKASMRELGLLIFFLFIGVILFSS ?
2.04

What do you get for LCASMRELGLLIFFLFIGVILFSS ?
1.28

What do you get for LKASMLELGLLIFFLFIGVILFSS ?
3.12

What do you get for LKASMRELGLLIFFLFIGHILFSS ?
4.02

What do you get for LKASMRELGLLIFFLMIGVILFSS ?
2.17

What do you get for LKASMRELGLLIFILFIGVILFSS ?
2.74

What do you get for LKALMRELGLLIFFLFIGVILFSS ?
4.39

What do you get for LKASMRELGLLIFFLFIGRILFSS ?
2.66

What do you get for LKANMRELGLLIFFLFIGVILFSS ?
2.31

What do you get for LKAAMRELGLLIFFLFIGVILFSS ?
3.21

What do you get for LKASMRELGLLIFFLFLGVILFSS ?
1.95

What do you get for LKASMRELGLLIFFLFIGVTLFSS ?
2.4

What do you get for LKASMVELGLLIFFLFIGVILFSS ?
2.45

What do you get for LIASMRELGLLIFFLFIGVILFSS ?
2.79

What do you get for LKASMRELGLLIFFLFISVILFSS ?
3.74

What do you get for LKASMRELGLYIFFLFIGVILFSS ?
3.48

What do you get for LKASMRELGLLVFFLFIGVILFSS ?
1.35

What do you get for AKASMRELGLLIFFLFIGVILFSS ?
2.05

What do you get for FKASMRELGLLIFFLFIGVILFSS ?
2.12

What do you get for LKASMRELGLLIFFLFIGSILFSS ?
3.99

What do you get for LKASMRELGILIFFLFIGVILFSS ?
2.42

What do you get for LKASMRELGLLIFFLFITVILFSS ?
3.2

What do you get for LKISMRELGLLIFFLFIGVILFSS ?
1.53

What do you get for LKASMRELGLLIFFLFIGWILFSS ?
2.1

What do you get for HKASMRELGLLIFFLFIGVILFSS ?
3.89

What do you get for LKASMREWGLLIFFLFIGVILFSS ?
2.85
